experiment: NCI Yeast Anticancer Drug Screen. Data for the cln2 rad14 strain (AID 165);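 note: 0% = growth equal to vehicle treated cultures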; details: S. cerevisiae cln2 rad14 strain, at 50.0 µM, active compounds read high
The panel holds about 79,000 compounds, 15% with a hit somewhere; the sample as a whole holds those more often.
Assay Readout: growth inhibition (%)
Quick reminder: number only, in %, skip the unit.

CC(=O)Nc1c(C)cc(S(=O)(=O)O)cc1C; -58.7
O=C(O)c1ccccc1-c1ccccc1C(=O)Nc1ccc2c(c1)[nH]c(=O)c1ccccc12; 46.9
CCCCCOC(=S)S; -12.1

Incoming: Can you share its growth inhibition? I mean this compound: COc1cc2ccccc2cc1CO
Outgoing: -16.1

Incoming: Can you share its growth inhibition? I mean this compound: CCCCCCC(C)(O)C(C)O (stereo unspecified)
Outgoing: 14.9

Incoming: Can you share its growth inhibition? I mean this compound: COc1ccc(Cc2coc3ccccc3c2=O)cc1
Outgoing: 4.85

Incoming: Can you share its growth inhibition? I mean this compound: CCOC1OC(C2COC(=S)O2)C(O)C1O (stereo unspecified)
Outgoing: -4.1

Incoming: Can you share its growth inhibition? I mean this compound: CSc1nc(NC2OCC(OC(C)=O)C(OC(C)=O)C2OC(C)=O)c(N=CC=Nc2c(NC3OCC(OC(C)=O)C(OC(C)=O)C3OC(C)=O)nc(SC)[nH]c2=O)c(=O)[nH]1 (stereo unspecified)
Outgoing: 7.15

Incoming: Can you share its growth inhibition? I mean this compound: CN(C)CCOC(=O)COc1ccc(Cl)cc1
Outgoing: 38

Incoming: Can you share its growth inhibition? I mean this compound: COc1ccc2c3c([nH]c2c1)CCN(CCCC(=O)c1ccc(F)cc1)C3
Outgoing: 31.1

Incoming: Can you share its growth inhibition? I mean this compound: CSc1nc(-c2ccc(Cl)cc2)c(C#N)c(=O)n1C1OC(COC(C)=O)C(OC(C)=O)C(OC(C)=O)C1OC(C)=O (stereo unspecified)
Outgoing: 21.2

====

assay: NCI Yeast Anticancer Drug Screen. Data for the mlh1 rad18 strain (AID 175); details: S. cerevisiae mlh1 rad18 strain growth inhibition; at 50.0 µM; active compounds read high
This is part of a sample that, as a whole, favours compounds with a hit. Of some 79,000 tested, about 15% had one in any assay.
Assay Readout: growth inhibition (%)
Quick reminder: number only, in %, skip the unit.

// below: answered compounds
Cc1cc(C)c2ccc(NN=O)nc2n1; 25.7
CNC(=O)N(Cl)c1ccc(Cl)cc1; -0.25
CCCCOC(=O)NC(C)=O; -16.1
CNC(=O)OCc1c(COC(=O)NC)c(-c2ccc(S(=O)(=O)c3ccccc3)cc2)n(C)c1C; -42.6
CS(=O)(=O)CCCCCCCCCCS(C)(=O)=O; 4.5
CN(C)c1nc2ccc(Cl)cc2c(=O)[nH]1; 3.9
COc1cccc2c1CC/C(=C\c1ccccn1)C2=O; 99.2
CCOC(=O)C(F)(F)C(F)(F)C(F)(F)F; 11.8
NC(CS(N)(=O)=O)C(=O)O (stereo not drawn); 2.8
O/N=C1/CCSc2ccccc21; 8.25

Incoming: Can you share its growth inhibition? I mean this compound: CCOC(=O)NCS(=O)(=O)N1CCOCC1
Outgoing: 9.7

Incoming: Can you share its growth inhibition? I mean this compound: CCCCCC[N+]12CC=C3COC(=O)C(C)(O)C(C)(O)C(C)C(=O)OC(CC1)C32 (stereo not drawn)
Outgoing: 7.85

Incoming: Can you share its growth inhibition? I mean this compound: O=C(O)c1cccc(N=Nc2ccccc2)c1O
Outgoing: 10.7
